Biological target: Hepatocyte nuclear factor 4-alpha (Homo sapiens) (UniProt P41235)
Sequence (P41235 whole entry, looked up): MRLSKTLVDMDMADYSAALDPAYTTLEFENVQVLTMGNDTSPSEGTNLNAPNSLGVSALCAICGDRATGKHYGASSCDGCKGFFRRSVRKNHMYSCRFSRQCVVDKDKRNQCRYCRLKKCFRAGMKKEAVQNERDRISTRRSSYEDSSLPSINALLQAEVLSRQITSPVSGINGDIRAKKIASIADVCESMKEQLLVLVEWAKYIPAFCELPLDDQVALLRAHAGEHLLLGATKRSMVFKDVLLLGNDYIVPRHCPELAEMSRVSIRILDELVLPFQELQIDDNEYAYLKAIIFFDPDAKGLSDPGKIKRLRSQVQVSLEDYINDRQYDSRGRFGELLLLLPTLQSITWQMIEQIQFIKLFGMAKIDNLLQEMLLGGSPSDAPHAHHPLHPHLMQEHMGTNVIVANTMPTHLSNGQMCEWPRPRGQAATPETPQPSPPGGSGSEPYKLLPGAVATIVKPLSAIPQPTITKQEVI
Assay: ATG_HNF4a_TRANS: Attagene TRANS-FACTORIAL HepG2 Assay for human Hepatocyte Nuclear Factor 4 alpha (HNF4a) (AID 2282982)
Details: HepG2 HNF4a transactivation reporter, mRNA readout
Results filed as inconclusive are left out. Activity calls are given as the source filed them. How the source made its calls: active means hit-call score of the fitted dose curve at least 0.9, where 1 is the maximum; inconclusive means response in the unintended direction; inactive means score below 0.9.
Respond with a class label; see Y = active, N = inactive

CCCCC(CC)C(=O)O (stereo not drawn) : N

INPUT: In this assay, the call recorded for O=C(Nc1cccc([N+](=O)[O-])c1)c1cc2ccccc2cc1O was what?
OUTPUT: N

INPUT: In this assay, the call recorded for CC1=CC(=O)c2ccccc2C1=O was what?
OUTPUT: N

INPUT: In this assay, the call recorded for Clc1ccc2c(Cl)ccnc2c1 was what?
OUTPUT: N

INPUT: In this assay, the call recorded for COc1cc(OC)nc(NC(=O)NS(=O)(=O)Nc2ccccc2C(=O)N(C)C)n1 was what?
OUTPUT: N
